- System: P. falciparum stage V gametocytes
- Design: BacTiter-Glo ATP luminescence viability of purified stage V gametocytes in 384-well plates, per cent inhibition versus DMSO
- Cond: 48 h, 5 µM; inhibitor
Out of some 13,000 compounds screened, about 3,200 (25%) showed an effect of 50% or more. The list shows a part of the results.
So I've got a bunch of compounds here, and I need their % Inhibition values.
The figure you give is taken to be in %; do not add the unit.

Please look up its % Inhibition: CCC(C)NC(=O)CN1CN(c2ccccc2)C2(CCN(C(=O)c3ccc(C(C)(C)C)cc3)CC2)C1=O (stereo not shown) -75.94

Please look up its % Inhibition: `CCc1nc(N)nc(N)c1-c1ccc(F)c(F)c1` 12.31

Please look up its % Inhibition: COc1ccc2ncc(F)c(NC(=O)C3CCC(NCc4cc5cc(F)cc(F)c5[nH]4)CC3)c2n1 (stereo not shown) 25.24

Please look up its % Inhibition: `CCCCCCN1CCC(NCc2cccc3ccccc23)CC1` -97.34
